Consider the following molecules and their measured IC50 readings.
# Tested on: MES SA DX
# Experimental Details: Cytotoxicity assay (72 hour killing assay, CellTiter-Glo), MES SA DX
# Format: cell-based, human
# Study Conditions: Homo sapiens, MES-SA, 72 h, read-out: Cancer cell lines IC50 (nM) MES SA DX

Below, each entry is followed by its recorded IC50 result.
Molecule	Target Or System	IC50
COC(=O)C[C@@H]1C[C@@]2(CO2)[C@H](O)[C@@H](/C=C/C(C)=C/C[C@@H]2O[C@H](C)[C@H](NC(=O)/C=C\[C@H](C)OC(=O)N3CCCCC3)C[C@@H]2C)O1 [Compound 42]	MES SA DX	3.45 nM
COC(=O)C[C@@H]1C[C@@]2(CO2)[C@H](O)[C@@H](/C=C/C(C)=C\C[C@@H]2O[C@H](C)[C@H](NC(=O)/C=C\[C@H](C)OC(C)=O)C[C@H]2C)O1 [Compound 47]	MES SA DX	> 1000 nM

Next, consider the following molecule.
// recorded IC50 for CCOC(=O)CCNC(=O)C[C@@H]1C[C@@]2(CO2)[C@H](O)[C@@H](/C=C/C(C)=C/C[C@@H]2O[C@H](C)[C@H](NC(=O)/C=C\[C@H](C)OC(C)=O)C[C@H]2C)O1 [Compound 33] : > 2500 nM

Data origin, for the record: patent US11584754B2
